# Target under test: CDK4/cyclinD1 (Homo sapiens, UniProt P11802)
# Assay name: CDKi biochemical assay (TR-FRET, phosphorylation of S780 on RB1 peptide)
# Condition info: CDK4/cyclinD1 20 pM, 1 mM ATP, 60 min at 25° C.
pIC50: −log10 of the molar value.
Endpoint name: pIC50

[[record]]
molecule = "O=C1N([C@@H]2CCC[C@@H](O)C2)c2nc(Nc3c[nH]nc3-c3cnn4ccncc34)ncc2C12CC2"
measured_value = 5.33

[[record]]
molecule = "O=C1N([C@@H]2CCC[C@@H](O)C2)c2nc(Nc3c[nH]nc3-c3cnn4c3CCC4)ncc2C12CC2"
measured_value = 5.20

[[record]]
molecule = "Cn1ncc(-c2n[nH]cc2Nc2ncc3c(n2)N([C@@H]2CCC[C@@H](O)C2)C(=O)C32CC2)c1C(F)F"
measured_value = 5.20

[[record]]
molecule = "O=C1N([C@@H]2CCC[C@@H](O)C2)c2nc(Nc3c[nH]nc3OCCO)ncc2C12CC2"
measured_value = 5.44

[[record]]
molecule = "Cn1ncc(-c2n[nH]cc2Nc2ncc3c(n2)N([C@@H]2CCC[C@@H](O)C2)C(=O)C32CC2)c1Cl"
measured_value = 5.10


P: O=C1N([C@@H]2CCC[C@@H](O)C2)c2nc(Nc3c[nH]nc3OC3(CF)CC3)ncc2C12CC2
Q: O=C1N([C@@H]2CCC[C@@H](O)C2)c2nc(Nc3c[nH]nc3OCCF)ncc2C12CC2
R: O=C1N([C@@H]2CCC[C@@H](O)C2)c2nc(Nc3c[nH]nc3OC3CCC(F)(F)C3)ncc2C12CC2 (stereo partly drawn)
Query: Arrange items by their pIC50 values in increasing order. The reply should contain the labels ordered as requested.
Result: R, P, Q
